Reference source for all entries: ChEMBL document CHEMBL1949654

- TEST_NAME: Drug uptake in CD rat plasma at 30 mg/kg, po measured after 3 hrs
- Format: ADME, organism-based
- Design: dose 30 mg/kg, route oral
OBSERVED_PROPERTY: concentration at 3 h (nM)
Return type: number; implicit unit nM.

INSERT INTO results (smiles_str, observed_property, recorded_measurement) VALUES
  ('COc1cc(-c2nnc3n([C@@H](CO)c4ccc(F)cc4)cc(Cl)cc2-3)ccc1-n1cnc(C)c1', 'concentration at 3 h', 2150),
  ('COc1cc(-c2nnc3n([C@@H](C)c4ccc(F)c(F)c4)cc(Cl)cc2-3)ccc1-n1cnc(C)c1', 'concentration at 3 h', 6510),
  ('COc1cc(-c2nnc3n([C@@H](C)c4ccc(F)cc4)cc(Cl)cc2-3)ccc1-n1cnc(C)c1', 'concentration at 3 h', 2740);

What value of concentration at 3 h has been reported for the following compound? "COc1cc(-c2nnc3n([C@@H](C)c4cc(F)ccc4F)cc(Cl)cc2-3)ccc1-n1cnc(C)c1"
2520

Reported concentration at 3 h, compound "COc1cc(-c2nnc3n([C@@H](C)c4ccc(F)cc4)cccc2-3)ccc1-n1cnc(C)c1" : ____
2880

Please report the recorded concentration at 3 h for "COc1cc(-c2nnc3n([C@@H](C)c4cc(F)cc(F)c4)cccc2-3)ccc1-n1cnc(C)c1" .
1960

Consider the compound shown here: "COc1cc(-c2nnc3n([C@@H](C)c4cc(F)c(F)c(F)c4)cc(Cl)cc2-3)ccc1-n1cnc(C)c1" What is its recorded concentration at 3 h?
5020

Need concentration at 3 h, item "CC[C@@H](c1cc(F)c(F)c(F)c1)n1cc(Cl)cc2c(-c3ccc(-n4cnc(C)c4)c(OC)c3)nnc1-2"
7230

Which concentration at 3 h is listed for "COc1cc(-c2nnc3n([C@@H](C)c4ccc(F)cc4)cc(C(C)(F)F)cc2-3)ccc1-n1cnc(C)c1" ?
30

* * *

- Test system: P-glycoprotein
- TEST_NAME: Drug transport assessed as P-glycoprotein-mediated basolateral to apical permeability
- Format: ADME
- MEASUREMENT_SETUP: not told; read-out: permeability
OBSERVED_PROPERTY: Papp B→A (×10⁻⁶ cm/s)
Give the number; ×10⁻⁶ cm/s is assumed, so skip it.

Name the recorded Papp B→A for "COc1cc(-c2nnc3n([C@@H](C)c4ccc(F)cc4)cc(C)cc2-3)ccc1-n1cnc(C)c1" .
41.2

Papp B→A lookup needed for "COc1cc(-c2nnc3n([C@@H](C)c4ccc(F)cc4)cccc2-3)ccc1-n1cnc(C)c1" , thanks.
31.4

For the molecule shown here, "COc1cc(-c2nnc3n([C@@H](C)c4cc(F)cc(F)c4)cccc2-3)ccc1-n1cnc(C)c1" , give the reported Papp B→A.
32.4

* * *

- TEST_NAME: Drug uptake in CD rat brain at 30 mg/kg, po measured after 3 hrs
- Assay type: ADME, organism-based
- Parameters: dose 30 mg/kg, route oral
- MEASUREMENT_SETUP: read-out: Drug uptake
OBSERVED_PROPERTY: concentration at 3 h
Quick note: number first, unit second.

Solved cases below.
INSERT INTO measurements (smiles_str, recorded_measurement) VALUES
  ('COc1cc(-c2nnc3n([C@@H](C)c4ccc(F)c(F)c4)cc(Cl)cc2-3)ccc1-n1cnc(C)c1', '880 nM'),
  ('COc1cc(-c2nnc3n([C@@H](C)c4ccc(F)cc4)cc(Cl)cc2-3)ccc1-n1cnc(C)c1', '920 nM'),
  ('COc1cc(-c2nnc3n([C@@H](C)c4ccc(F)cc4)cccc2-3)ccc1-n1cnc(C)c1', '170 nM');

Now consider the entry below.
For the molecule shown here, "COc1cc(-c2nnc3n([C@@H](C)c4cc(F)c(F)c(F)c4)cc(Cl)cc2-3)ccc1-n1cnc(C)c1" , give the reported concentration at 3 h.
1220 nM

* * *

- Test system: P-glycoprotein
- TEST_NAME: Drug transport assessed as P-glycoprotein-mediated efflux ratio of compound transport from basolateral to apical side over apical to basolateral side
- Type: ADME
- MEASUREMENT_SETUP: not told
OBSERVED_PROPERTY: efflux ratio
I'd appreciate a reply containing only the number, no unit.

INSERT INTO results (smiles_str, experimental_system, recorded_measurement) VALUES
  ('COc1cc(-c2nnc3n([C@@H](C)c4cc(F)cc(F)c4)cccc2-3)ccc1-n1cnc(C)c1', 'P-glycoprotein', 3.85);

Give efflux ratio (P-glycoprotein) of the following molecule: "COc1cc(-c2nnc3n([C@@H](C)c4ccc(F)cc4)cc(C)cc2-3)ccc1-n1cnc(C)c1"
8.5

Identify the measured efflux ratio of "COc1cc(-c2nnc3n([C@@H](C)c4ccc(F)cc4)cccc2-3)ccc1-n1cnc(C)c1" for P-glycoprotein.
33.8

* * *

- Species: Mus musculus
- TEST_NAME: Inhibition of mouse gamma-secretase assessed as reduction in reduction in Hes-1 expression up to 20 uM
The source made the active and inactive calls. The rule behind the calls is not given here.
OBSERVED_PROPERTY: inhibition

# example entries with known answers
INSERT INTO results (smiles_str, observed_property, recorded_measurement) VALUES
  ('CC[C@@H](c1cc(F)c(F)c(F)c1)n1cc(Cl)cc2c(-c3ccc(-n4cnc(C)c4)c(OC)c3)nnc1-2', 'inhibition', 'inactive'),
  ('COc1cc(-c2nnc3n([C@@H](C)c4ccc(F)cc4)cc(CO)cc2-3)ccc1-n1cnc(C)c1', 'inhibition', 'inactive'),
  ('COc1cc(-c2nnc3n([C@@H](C)c4ccc(F)cc4)cc(C)cc2-3)ccc1-n1cnc(C)c1', 'inhibition', 'inactive'),
  ('CC[C@@H](c1ccc(F)cc1)n1cccc2c(-c3ccc(-n4cnc(C)c4)c(OC)c3)nnc1-2', 'inhibition', 'inactive');

Turning now to a further compound:
Item under review: "COc1ccc(COCc2cc3c(-c4ccc(-n5cnc(C)c5)c(OC)c4)nnc-3n([C@@H](C)c3ccc(F)cc3)c2)cc1" . Reported inhibition?
inactive

* * *

- System: P-glycoprotein
- TEST_NAME: Drug transport assessed as P-glycoprotein-mediated apical to basolateral permeability
- Assay type: ADME
- MEASUREMENT_SETUP: not told; read-out: permeability
OBSERVED_PROPERTY: Papp A→B (×10⁻⁶ cm/s)
Value expressed in ×10⁻⁶ cm/s; do not type the unit.

INSERT INTO results (smiles_str, observed_property, recorded_measurement) VALUES
  ('COc1cc(-c2nnc3n([C@@H](C)c4cc(F)cc(F)c4)cccc2-3)ccc1-n1cnc(C)c1', 'Papp A→B', 8.5),
  ('COc1cc(-c2nnc3n([C@@H](C)c4ccc(F)cc4)cc(C)cc2-3)ccc1-n1cnc(C)c1', 'Papp A→B', 4.8);

# input for lookup
# query: Papp A→B of entry "COc1cc(-c2nnc3n([C@@H](C)c4ccc(F)cc4)cccc2-3)ccc1-n1cnc(C)c1"
0.9

* * *

- TEST_NAME: Drug uptake in CD rat brain at 30 mg/kg, po measured after 3 hrs
- Format: ADME, organism-based
- Design: dose 30 mg/kg, route oral
- MEASUREMENT_SETUP: read-out: Drug uptake
Recorded concentration at 3 h by entry
Write it as a number; the unit nM goes unstated.

INSERT INTO assay_data (smiles_str, observed_property, recorded_measurement) VALUES
  ('COc1cc(-c2nnc3n([C@@H](C)c4cc(F)ccc4F)cc(Cl)cc2-3)ccc1-n1cnc(C)c1', 'concentration at 3 h', 740);

Given "CC[C@@H](c1cc(F)c(F)c(F)c1)n1cc(Cl)cc2c(-c3ccc(-n4cnc(C)c4)c(OC)c3)nnc1-2" , state its recorded concentration at 3 h.
1610

Consider the compound "COc1cc(-c2nnc3n([C@@H](CO)c4ccc(F)cc4)cc(Cl)cc2-3)ccc1-n1cnc(C)c1" and give its measured concentration at 3 h.
100

Any idea what its concentration at 3 h is? The compound is "COc1cc(-c2nnc3n([C@@H](C)c4cc(F)cc(F)c4)cccc2-3)ccc1-n1cnc(C)c1"
140
